Test Target: hMC4-R (Homo sapiens (Human))
Sequence (P32245 whole entry): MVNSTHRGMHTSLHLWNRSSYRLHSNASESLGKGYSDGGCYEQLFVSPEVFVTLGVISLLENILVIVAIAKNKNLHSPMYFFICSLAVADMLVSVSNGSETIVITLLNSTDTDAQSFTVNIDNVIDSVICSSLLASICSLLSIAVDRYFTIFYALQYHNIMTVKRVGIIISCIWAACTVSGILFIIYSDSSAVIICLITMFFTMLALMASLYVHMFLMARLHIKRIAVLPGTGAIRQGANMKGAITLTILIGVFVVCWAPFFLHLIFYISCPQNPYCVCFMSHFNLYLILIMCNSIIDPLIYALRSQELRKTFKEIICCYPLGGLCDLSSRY
Experimental Details: High and low density hMC4-R functional assay (cAMP, HEK293-T-REx-MC4-R cells)
Type: cell-based
Condition Info: 0.1 ng/mL Doxycycline (low density hMC4-R system)
Each record here notes measured EC50.

# Compound, EC50 / nM
measured = [
    ("CC(=O)N[C@@H](CCCNC(=N)N)C(=O)N[C@H]1CCC(=O)NCCC[C@@H](C(N)=O)NC(=O)[C@H](Cc2c[nH]c3ccccc23)NC(=O)[C@H](CCCNC(=N)N)NC(=O)[C@@H](Cc2cc(F)c(F)c(F)c2)NC(=O)[C@H](CCN)NC1=O", 0.7),
    ("CC(=O)N[C@@H](CCCNC(=N)N)C(=O)N[C@H]1CCC(=O)NCCC[C@@H](C(N)=O)NC(=O)[C@H](Cc2c[nH]c3ccccc23)NC(=O)[C@H](CCCNC(=N)N)NC(=O)[C@@H](Cc2ccc(F)cc2)NC(=O)[C@@H]2CCCN2C1=O [Example 102]", 18),
    ("CC(=O)N[C@@H](CCCNC(=N)N)C(=O)N[C@H]1CCC(=O)NCCC[C@@H](C(N)=O)NC(=O)[C@H](Cc2c[nH]c3ccccc23)NC(=O)[C@H](CCCNC(=N)N)NC(=O)[C@@H](Cc2ccc(F)cc2)NC(=O)[C@H](CCC(N)=O)NC1=O", 0.1),
    ("CC(=O)N[C@@H](CCCNC(=N)N)C(=O)N[C@H]1CCCNC(=O)CC[C@@H](C(N)=O)NC(=O)[C@H](Cc2c[nH]c3ccccc23)NC(=O)[C@H](CCCNC(=N)N)NC(=O)[C@@H](Cc2ccccc2C(F)(F)F)NC(=O)[C@H](CC(N)=O)NC1=O", 1),
    ("COc1cccc(C[C@H]2NC(=O)[C@H](CCN)NC(=O)[C@@H](NC(=O)[C@H](CCCNC(=N)N)NC(C)=O)CCC(=O)NCCC[C@@H](C(N)=O)NC(=O)[C@H](Cc3c[nH]c4ccccc34)NC(=O)[C@H](CCCNC(=N)N)NC2=O)c1", 1),
    ("CC(=O)N[C@@H](CCCNC(=N)N)C(=O)N[C@H]1CCC(=O)NCCC[C@@H](C(N)=O)NC(=O)[C@H](Cc2c[nH]c3ccccc23)NC(=O)[C@H](CCCNC(=N)N)NC(=O)[C@@H](Cc2ccccc2Cl)NC(=O)[C@H](CCN)NC1=O", 0.34),
    ("CC(=O)N[C@@H](CCCNC(=N)N)C(=O)N[C@H]1CCC(=O)NCCC[C@@H](C(N)=O)NC(=O)[C@H](Cc2c[nH]c3ccccc23)NC(=O)[C@H](CCCNC(=N)N)NC(=O)[C@@H](Cc2ccccc2Cl)NC(=O)[C@@H]2CCCN2C1=O", 3),
    ("CC(=O)N[C@@H](CCCNC(=N)N)C(=O)N[C@H]1CCC(=O)NCCC[C@@H](C(N)=O)NC(=O)[C@H](Cc2c[nH]c3ccccc23)NC(=O)[C@H](CCCNC(=N)N)NC(=O)[C@@H](Cc2ccc(C#N)cc2)NC(=O)[C@H](CC(N)=O)NC1=O", 1),
    ("CC(=O)N[C@@H](CCCNC(=N)N)C(=O)N[C@H]1CCC(=O)NCCC[C@@H](C(N)=O)NC(=O)[C@H](Cc2c[nH]c3ccccc23)NC(=O)[C@H](CCCNC(=N)N)NC(=O)[C@@H](Cc2ccccc2Cl)NC(=O)[C@H](CCC(N)=O)NC1=O", 1),
    ("CC(=O)N[C@@H](CCCNC(=N)N)C(=O)N[C@H]1CCC(=O)NCCC[C@@H](C(N)=O)NC(=O)[C@H](Cc2c[nH]c3ccccc23)NC(=O)[C@H](CCCNC(=N)N)NC(=O)[C@@H](Cc2ccccc2C)NC(=O)[C@H](CCN)NC1=O", 0.14),
    ("CC(=O)N[C@@H](CCCNC(=N)N)C(=O)N[C@H]1CCC(=O)NCCC[C@@H](C(=O)O)NC(=O)[C@H](Cc2c[nH]c3ccccc23)NC(=O)[C@H](CCCNC(=N)N)NC(=O)[C@@H](Cc2cccc(Cl)c2)NC(=O)[C@H](CCCN)NC1=O", 10),
    ("CC(=O)N[C@H](CCCNC(=N)N)C(=O)N[C@H]1CCCNC(=O)CC[C@@H](C(N)=O)NC(=O)[C@H](Cc2c[nH]c3ccccc23)NC(=O)[C@H](CCCNC(=N)N)NC(=O)[C@@H](Cc2cccc(Cl)c2)NC(=O)[C@H](Cc2c[nH]cn2)NC1=O", 0.64),
    ("CC(=O)N[C@@H](CCCNC(=N)N)C(=O)N[C@H]1CCC(=O)NCCC[C@@H](C(N)=O)NC(=O)[C@H](Cc2c[nH]c3ccccc23)NC(=O)[C@H](CCCNC(=N)N)NC(=O)[C@@H](Cc2ccc(C#N)cc2)NC(=O)[C@H]([C@@H](C)O)NC1=O", 11),
    ("CC(=O)N[C@@H](CCCNC(=N)N)C(=O)N[C@H]1CCCNC(=O)CC[C@@H](C(N)=O)NC(=O)[C@H](Cc2c[nH]c3ccccc23)NC(=O)[C@H](CCCNC(=N)N)NC(=O)[C@@H](Cc2ccccc2F)NC(=O)[C@H](CC(N)=O)NC1=O", 1),
    ("CC(=O)N[C@@H](CCCNC(=N)N)C(=O)N[C@H]1CCCNC(=O)CC[C@@H](C(N)=O)NC(=O)[C@H](Cc2c[nH]c3ccccc23)NC(=O)[C@H](CCCNC(=N)N)NC(=O)[C@@H](Cc2ccc(F)c(F)c2)NC(=O)[C@H](CC(N)=O)NC1=O", 0.65),
]
